Biological target: UniProt:P35372
Sequence (P35372 whole entry): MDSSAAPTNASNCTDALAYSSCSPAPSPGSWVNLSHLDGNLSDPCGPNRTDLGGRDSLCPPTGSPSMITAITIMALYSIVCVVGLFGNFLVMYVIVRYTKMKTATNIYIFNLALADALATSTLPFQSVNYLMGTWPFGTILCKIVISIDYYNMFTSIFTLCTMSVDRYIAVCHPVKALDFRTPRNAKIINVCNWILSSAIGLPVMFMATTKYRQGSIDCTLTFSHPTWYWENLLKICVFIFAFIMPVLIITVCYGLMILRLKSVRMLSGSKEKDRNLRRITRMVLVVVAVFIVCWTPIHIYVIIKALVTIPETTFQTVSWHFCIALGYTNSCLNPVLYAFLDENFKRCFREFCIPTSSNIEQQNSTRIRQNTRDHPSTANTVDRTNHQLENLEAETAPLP
pIC50: −log10 of the molar value.
Classification field: enter true for pIC50 values not below 7, false for values below it.

>>> category_label("COCCN(C(=O)Cc1ccc(Cl)cc1)C1c2ccccc2C=CC1N1CCN(c2ccccc2)CC1 (racemic)")
"false"
>>> category_label("COCCN(C(=O)c1ccc(Cl)c(Cl)c1)C1c2ccccc2C=CC1N1CCN(c2ccccc2)CC1 (racemic)")
"false"
>>> category_label("COCCN(C(=O)c1cc(C)nn1C)C1c2ccccc2CCC1c1ccsc1 (racemic)")
"false"
>>> category_label("COCCN(C(=O)c1sccc1Cl)[C@@H]1c2ccccc2C=C[C@H]1N1CCN(c2ccccc2)CC1")
"true"
>>> category_label("COCCN(C(=O)c1sccc1Cl)[C@H]1c2ccccc2C=C[C@@H]1N1CCN(c2ccccc2)CC1")
"false"
>>> category_label("COCCN(C(=O)COCc1ccccc1)C1c2ccccc2C=CC1N1CCN(c2ccccc2)CC1 (racemic)")
"false"

###

Target: Delta-type opioid receptor (Homo sapiens, UniProt P41143)
Sequence (P41143 whole entry): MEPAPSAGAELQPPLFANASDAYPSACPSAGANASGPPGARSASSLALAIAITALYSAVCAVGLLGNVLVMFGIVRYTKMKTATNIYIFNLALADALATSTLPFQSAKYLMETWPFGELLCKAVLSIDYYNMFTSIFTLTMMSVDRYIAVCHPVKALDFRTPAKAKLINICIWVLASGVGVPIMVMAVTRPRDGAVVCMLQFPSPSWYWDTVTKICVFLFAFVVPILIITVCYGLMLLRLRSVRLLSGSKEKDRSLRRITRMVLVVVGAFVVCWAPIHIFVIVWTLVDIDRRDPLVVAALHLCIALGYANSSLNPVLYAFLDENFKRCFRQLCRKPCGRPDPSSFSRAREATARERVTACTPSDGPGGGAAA
Assay: Displacement of [125I]deltorphin 2 from human cloned delta opioid receptor
pIC50: −log10 of the molar value.
property-measured: pIC50

>>> observed_measurement("COCCN(C(=O)Cc1ccc(Cl)cc1)C1c2ccccc2C=CC1N1CCN(c2ccccc2)CC1 (racemic)")
5.71
>>> observed_measurement("COCCN(C(=O)Cc1cccc(OC)c1)C1c2ccccc2C=CC1N1CCN(c2ccccc2)CC1 (racemic)")
5.83
>>> observed_measurement("COCCN(C(=O)c1sccc1Cl)C1c2ccccc2C=CC1N1CCN(c2ccccc2)CC1 (racemic)")
5.64
>>> observed_measurement("COCCN(C(=O)c1cc(C)nn1C)C1c2ccccc2CCC1c1ccsc1 (racemic)")
5.89
>>> observed_measurement("COCCN[C@@H]1c2ccccc2CC[C@H]1c1ccsc1")
5.42
>>> observed_measurement("COCCN(C(=O)c1ccc(Cl)c(Cl)c1)C1c2ccccc2C=CC1N1CCN(c2ccccc2)CC1 (racemic)")
5.44
>>> observed_measurement("COCCN(C(=O)COCc1ccccc1)C1c2ccccc2C=CC1N1CCN(c2ccccc2)CC1 (racemic)")
5.41
>>> observed_measurement("COCCN(C(=O)c1sccc1Cl)[C@@H]1c2ccccc2C=C[C@H]1N1CCN(c2ccccc2)CC1")
5.91

###

Target: Kappa-type opioid receptor (Homo sapiens)
Sequence (P41145 whole entry): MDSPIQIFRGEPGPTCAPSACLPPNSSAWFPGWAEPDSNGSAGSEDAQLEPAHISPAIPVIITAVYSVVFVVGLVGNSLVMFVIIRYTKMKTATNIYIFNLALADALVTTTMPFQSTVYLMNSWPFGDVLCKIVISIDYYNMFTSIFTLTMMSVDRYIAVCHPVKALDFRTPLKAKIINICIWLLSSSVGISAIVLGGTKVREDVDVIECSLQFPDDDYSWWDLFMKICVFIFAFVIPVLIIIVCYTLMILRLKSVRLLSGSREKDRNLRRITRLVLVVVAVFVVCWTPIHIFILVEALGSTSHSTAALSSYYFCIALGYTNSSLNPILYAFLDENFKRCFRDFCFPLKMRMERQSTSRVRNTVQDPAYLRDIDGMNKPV
pIC50: −log10 of the molar value.
property-measured: pIC50

>>> observed_measurement("COCCN(C(=O)COCc1ccccc1)C1c2ccccc2C=CC1N1CCN(c2ccccc2)CC1 (racemic)")
"< 5.00"
>>> observed_measurement("COCCN(C(=O)Cc1cccc(OC)c1)C1c2ccccc2C=CC1N1CCN(c2ccccc2)CC1 (racemic)")
"< 5.00"
>>> observed_measurement("COCCN(C(=O)c1ccc(Cl)c(Cl)c1)C1c2ccccc2C=CC1N1CCN(c2ccccc2)CC1 (racemic)")
"< 5.00"
